Molecular target: `Enkephalinase` (Mus musculus, UniProt Q61391)
Construct: The lung and brain (less cerebellum) were rapidly dissected, weighed and homogenised; from tissue; host or cells: mouse lung and brain (less cerebellum) homogenate
Sequence (Q61391 1-750): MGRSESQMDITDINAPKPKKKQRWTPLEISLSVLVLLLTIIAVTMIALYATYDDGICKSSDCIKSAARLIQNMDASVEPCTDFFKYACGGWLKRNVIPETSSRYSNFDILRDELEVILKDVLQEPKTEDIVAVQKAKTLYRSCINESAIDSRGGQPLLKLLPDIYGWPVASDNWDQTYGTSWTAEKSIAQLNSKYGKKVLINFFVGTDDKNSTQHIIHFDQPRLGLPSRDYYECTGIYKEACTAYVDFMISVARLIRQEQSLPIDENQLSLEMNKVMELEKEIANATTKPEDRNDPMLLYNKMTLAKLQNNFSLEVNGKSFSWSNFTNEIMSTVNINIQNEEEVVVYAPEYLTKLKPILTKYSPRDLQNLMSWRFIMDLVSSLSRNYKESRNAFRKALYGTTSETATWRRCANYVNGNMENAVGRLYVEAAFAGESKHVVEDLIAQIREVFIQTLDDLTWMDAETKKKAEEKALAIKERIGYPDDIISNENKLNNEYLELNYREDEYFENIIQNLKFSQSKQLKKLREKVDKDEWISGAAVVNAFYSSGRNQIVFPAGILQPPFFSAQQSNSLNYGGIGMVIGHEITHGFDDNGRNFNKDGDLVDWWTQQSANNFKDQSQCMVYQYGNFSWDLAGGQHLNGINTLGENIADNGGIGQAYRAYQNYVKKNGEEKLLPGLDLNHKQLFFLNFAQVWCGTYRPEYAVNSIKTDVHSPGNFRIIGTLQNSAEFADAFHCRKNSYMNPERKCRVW
Experiment: Activity ex vivo: `enkephalinase` activity in lung and brain homogenates of mice dosed i.p. with test compound
Conditions: mouse, ip, 0.25 h, lung homogenate, 15 minutes after administration, read-out: Apparent ED50 Lung
# ED50 values compiled below
PARAMETER: ED50 (µmol/kg)

>  <COMPOUND>
O=C(O)CNC(=O)C(CS)Cc1ccccc1 (racemic) [Thiorphan, reference compound]

>  <PARAMETER>
ED50

>  <RESULT COMPARATOR>
=

>  <MEAS VALUE>
0.69

$$$$
>  <COMPOUND>
CCOC(=O)[C@H](CC(C)C)NC(=O)C(Cc1ccccc1)C(=O)NO (stereo partly shown)

>  <PARAMETER>
ED50

>  <RESULT COMPARATOR>
=

>  <MEAS VALUE>
8.6

$$$$
>  <COMPOUND>
CC(C)C[C@H](NC(=O)C(Cc1ccccc1)C(=O)NO)C(=O)OC(C)(C)C (stereo partly shown)

>  <PARAMETER>
ED50

>  <RESULT COMPARATOR>
>

>  <MEAS VALUE>
26.5

$$$$
>  <COMPOUND>
CC(C)C[C@H](NC(=O)C(Cc1ccccc1)C(=O)NO)C(=O)O (stereo partly shown)

>  <PARAMETER>
ED50

>  <RESULT COMPARATOR>
=

>  <MEAS VALUE>
6.1

$$$$

----------
The following molecules each carry a recorded IC50 for enkephalinase Al (Rattus norvegicus).
PARAMETER: IC50 (nM)

>  <MOLECULE>
COc1ccc(CC(C(=O)NO)C(=O)N[C@@H](CC(C)C)C(=O)O)cc1 (some centres unmarked) [Compound 3]

>  <TARGET>
enkephalinase Al (Rattus norvegicus)
Sequence (P07861 whole entry): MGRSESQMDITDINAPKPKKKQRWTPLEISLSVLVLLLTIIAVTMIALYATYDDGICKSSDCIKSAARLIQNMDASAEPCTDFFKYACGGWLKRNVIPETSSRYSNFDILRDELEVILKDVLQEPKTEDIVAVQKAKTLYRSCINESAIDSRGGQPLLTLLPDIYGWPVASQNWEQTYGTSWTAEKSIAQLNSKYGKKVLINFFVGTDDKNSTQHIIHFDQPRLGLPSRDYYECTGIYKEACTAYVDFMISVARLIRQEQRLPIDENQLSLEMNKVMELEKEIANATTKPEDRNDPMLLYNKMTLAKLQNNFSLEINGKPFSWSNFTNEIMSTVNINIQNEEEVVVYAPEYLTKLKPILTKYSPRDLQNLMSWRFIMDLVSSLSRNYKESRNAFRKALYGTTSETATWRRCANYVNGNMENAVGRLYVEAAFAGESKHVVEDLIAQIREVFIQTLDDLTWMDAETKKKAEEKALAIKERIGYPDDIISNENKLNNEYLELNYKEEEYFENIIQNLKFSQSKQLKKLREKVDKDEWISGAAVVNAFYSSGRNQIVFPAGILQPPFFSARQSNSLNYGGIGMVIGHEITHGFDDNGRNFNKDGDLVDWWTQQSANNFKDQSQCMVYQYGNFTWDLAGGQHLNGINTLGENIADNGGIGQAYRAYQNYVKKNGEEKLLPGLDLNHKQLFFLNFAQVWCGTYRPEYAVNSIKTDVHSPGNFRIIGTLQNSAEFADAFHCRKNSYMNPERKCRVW

>  <MEAS VALUE>
750

$$$$
>  <MOLECULE>
CC(C)C[C@H](NC(=O)C(Cc1ccc(Br)cc1)C(=O)NO)C(=O)O (some centres unmarked) [Compound 10]

>  <TARGET>
enkephalinase Al (Rattus norvegicus)

>  <MEAS VALUE>
60

$$$$
>  <MOLECULE>
CC(C)C[C@H](NC(=O)C(Cc1ccccc1)C(=O)NO)C(=O)O (some centres unmarked) [Compound 1]

>  <TARGET>
enkephalinase Al (Rattus norvegicus)

>  <MEAS VALUE>
19

$$$$
>  <MOLECULE>
CC(C)C[C@H](NC(=O)C(Cc1ccc(C(C)C)cc1)C(=O)NO)C(=O)O (some centres unmarked) [Compound 2]

>  <TARGET>
enkephalinase Al (Rattus norvegicus)

>  <MEAS VALUE>
120

$$$$
>  <MOLECULE>
CC(C)C[C@H](NC(=O)C(Cc1ccc([N+](=O)[O-])cc1)C(=O)NO)C(=O)O (some centres unmarked) [Compound 9]

>  <TARGET>
enkephalinase Al (Rattus norvegicus)

>  <MEAS VALUE>
520

$$$$

Values compiled from patent US4504492A.
